# experimental.details: Inhibition of HSP90 (unknown origin) ATPase activity
# Parameters: species or system Homo sapiens
property.measured: IC50 (µM)
Just the number in µM, nothing appended.

Return reported IC50. Input compound: `Cc1ccc(NC(=O)CN2C(=O)N/C(=C/c3ccccc3OCc3cccc(C(=O)O)c3)C2=O)cc1`
47.6

====

A set of molecules tested on RecQ-like DNA helicase BLM (Homo sapiens, UniProt P54132), with measured IC50:
Just the number in µM, nothing appended.

• O=C1/C(=C2\Nc3ccc(S(=O)(=O)O)cc3C2=O)Nc2ccc(S(=O)(=O)O)cc21 [INDIGOTINDISULFONATE] = 3.3

# next molecule below
Enter IC50 (test system RecQ-like DNA helicase BLM (Homo sapiens, UniProt P54132)) for `CC(C)(CN1C(=O)C(Cl)=C(Cl)C1=O)CN1C(=O)C(Cl)=C(Cl)C1=O`
11.3

====

# tgt: Bifunctional 3'-5' exonuclease/ATP-dependent helicase WRN (Homo sapiens, UniProt Q14191)
# Sequence (Q14191 whole entry): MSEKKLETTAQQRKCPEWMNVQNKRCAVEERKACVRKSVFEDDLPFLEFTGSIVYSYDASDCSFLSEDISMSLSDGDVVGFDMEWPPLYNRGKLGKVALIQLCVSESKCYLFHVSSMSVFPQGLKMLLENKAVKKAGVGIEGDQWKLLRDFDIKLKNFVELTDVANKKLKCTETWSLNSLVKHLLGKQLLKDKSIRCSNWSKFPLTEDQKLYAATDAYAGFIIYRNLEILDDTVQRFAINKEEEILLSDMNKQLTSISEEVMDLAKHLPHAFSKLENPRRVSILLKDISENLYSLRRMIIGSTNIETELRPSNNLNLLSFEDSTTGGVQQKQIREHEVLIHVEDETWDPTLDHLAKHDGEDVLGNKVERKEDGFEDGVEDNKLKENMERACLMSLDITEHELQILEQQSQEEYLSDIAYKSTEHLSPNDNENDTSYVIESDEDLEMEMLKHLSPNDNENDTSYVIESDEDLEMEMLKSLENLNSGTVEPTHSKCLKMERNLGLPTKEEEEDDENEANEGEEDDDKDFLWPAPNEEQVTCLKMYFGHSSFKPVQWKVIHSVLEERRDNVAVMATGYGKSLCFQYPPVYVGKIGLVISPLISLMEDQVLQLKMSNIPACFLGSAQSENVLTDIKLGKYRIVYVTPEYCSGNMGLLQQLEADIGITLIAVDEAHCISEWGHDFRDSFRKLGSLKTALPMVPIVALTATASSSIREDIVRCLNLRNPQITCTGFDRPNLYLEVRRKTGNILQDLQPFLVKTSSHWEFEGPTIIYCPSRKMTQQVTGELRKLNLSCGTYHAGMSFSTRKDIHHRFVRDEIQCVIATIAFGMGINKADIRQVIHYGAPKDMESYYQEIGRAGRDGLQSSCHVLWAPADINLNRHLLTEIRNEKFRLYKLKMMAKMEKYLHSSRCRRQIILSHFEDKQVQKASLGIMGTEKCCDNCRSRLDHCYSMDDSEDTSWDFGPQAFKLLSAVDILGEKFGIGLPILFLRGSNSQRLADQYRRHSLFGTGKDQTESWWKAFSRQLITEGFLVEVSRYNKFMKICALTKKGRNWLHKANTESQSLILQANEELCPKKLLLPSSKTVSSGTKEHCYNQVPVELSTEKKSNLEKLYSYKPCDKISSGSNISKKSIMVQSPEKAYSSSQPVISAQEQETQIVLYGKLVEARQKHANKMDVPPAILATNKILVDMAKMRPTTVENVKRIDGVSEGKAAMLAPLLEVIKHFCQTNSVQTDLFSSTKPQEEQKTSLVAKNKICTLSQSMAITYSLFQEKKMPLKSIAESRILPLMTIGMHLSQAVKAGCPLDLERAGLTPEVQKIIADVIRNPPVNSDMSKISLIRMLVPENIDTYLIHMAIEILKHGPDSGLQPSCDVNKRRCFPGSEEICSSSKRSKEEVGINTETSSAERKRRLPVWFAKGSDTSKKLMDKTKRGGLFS
# experimental.details: Inhibition of recombinant human WRN unwinding activity by immunosorbent-based helicase unwinding assay
property.measured: pIC50
Hey, just a heads up that pIC50 is the negative log base 10 of the concentration in molar.

* Cc1ccc(NC(=O)CN2C(=O)N/C(=C/c3ccccc3OCc3cccc(C(=O)O)c3)C2=O)cc1 | 5.01

# next molecule below
Return reported pIC50. Input molecule: O=C1/C(=C2\Nc3ccc(S(=O)(=O)O)cc3C2=O)Nc2ccc(S(=O)(=O)O)cc21 [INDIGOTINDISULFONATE]
6.70

====

IC50 listing for selected compounds.
# tgt: Bifunctional 3'-5' exonuclease/ATP-dependent helicase WRN (Homo sapiens, UniProt Q14191)
# experimental.details: Inhibition of WRN (unknown origin)
Just the number in nM, nothing appended.

- CC(C)(CN1C(=O)C(Cl)=C(Cl)C1=O)CN1C(=O)C(Cl)=C(Cl)C1=O: 230
- COc1ccc2nc(O)c(-c3noc(-c4ccccc4)n3)cc2c1: 2300

Return reported IC50. Input compound: `COc1ccc2nc(O)c(-c3noc(-c4ccc(F)cc4)n3)cc2c1`
13000

====

# tgt: Eukaryotic initiation factor 4A-I (Homo sapiens, UniProt P60842)
# Sequence (P60842 whole entry): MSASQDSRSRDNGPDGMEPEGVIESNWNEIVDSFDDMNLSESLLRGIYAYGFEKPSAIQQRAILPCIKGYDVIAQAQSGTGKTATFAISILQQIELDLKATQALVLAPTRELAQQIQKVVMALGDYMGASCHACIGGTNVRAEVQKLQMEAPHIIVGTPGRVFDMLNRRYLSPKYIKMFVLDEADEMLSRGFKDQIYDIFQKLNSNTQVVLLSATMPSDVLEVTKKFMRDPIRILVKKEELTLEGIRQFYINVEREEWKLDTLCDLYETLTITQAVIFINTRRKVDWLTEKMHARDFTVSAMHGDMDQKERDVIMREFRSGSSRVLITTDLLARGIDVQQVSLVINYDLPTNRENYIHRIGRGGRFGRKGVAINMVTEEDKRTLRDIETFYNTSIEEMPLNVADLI
pIC50: −log10 of the molar value.
property.measured: pIC50

Return reported pIC50. Input compound: O=C1/C(=C2\Nc3ccc(S(=O)(=O)O)cc3C2=O)Nc2ccc(S(=O)(=O)O)cc21 [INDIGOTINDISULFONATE]
< 3.70
